system: Pseudomonas aeruginosa; assay: Antimicrobial activity against Pseudomonas aeruginosa ATCC 9027 by MTT assay; assay type: functional
property.label: MIC50 (µg/mL)

CC1(C)O[C@@H]2[C@H](O1)[C@@H](COC(=O)Cc1ccccc1Cl)O[C@H]2n1cnc2c(N)ncnc21 = 28
CC1(C)O[C@@H]2[C@H](O1)[C@@H](COC(=O)Cc1ccccc1O)O[C@H]2n1cnc2c(N)ncnc21 = 23
O=C(O)c1cn(C2CC2)c2cc(N3CCNCC3)c(F)cc2c1=O = 0.1
CC1(C)O[C@@H]2[C@H](O1)[C@@H](COC(=O)Cc1ccc(F)cc1)O[C@H]2n1cnc2c(N)ncnc21 = 24.8

I = Nc1ncnc2c1ncn2[C@@H]1O[C@H](COC(=O)Cc2ccc(O)cc2)[C@@H](O)[C@H]1O
II = Nc1ncnc2c1ncn2[C@@H]1O[C@H](COC(=O)Cc2cccc(F)c2)[C@@H](O)[C@H]1O
Task item: Lower MIC50: I or II ? Identify your selection by its label.
Reply: II
(II: 0.08 µg/mL, I: 25.9 µg/mL)

* * *

tested on: Pseudomonas aeruginosa; experiment: Antimicrobial activity against Pseudomonas aeruginosa ATCC 9027 by MTT assay; type: functional
property.label: MIC50 (µg/mL)

Nc1ncnc2c1ncn2[C@@H]1O[C@H](COC(=O)Cc2cccc(Cl)c2)[C@@H](O)[C@H]1O = 35.1

1 = Nc1ncnc2c1ncn2[C@@H]1O[C@H](COC(=O)c2cccc(Cl)c2)[C@@H](O)[C@H]1O
2 = CC1(C)O[C@@H]2[C@H](O1)[C@@H](COC(=O)Cc1cccc(F)c1)O[C@H]2n1cnc2c(N)ncnc21
Task item: // compare measured MIC50, left 1 , right 2 , return larger Mark your answer with the label of the selected entry.
Reply: 2
(2: 12.9 µg/mL, 1: 8.7 µg/mL)

* * *

system: Pseudomonas aeruginosa; experiment: Antimicrobial activity against Pseudomonas aeruginosa ATCC 9027 by MTT assay; format: functional
property.label: MIC50 (µg/mL)

CC1(C)O[C@@H]2[C@H](O1)[C@@H](COC(=O)Cc1ccc(Cl)c(Cl)c1)O[C@H]2n1cnc2c(N)ncnc21 = 19.3
Nc1ncnc2c1ncn2[C@@H]1O[C@H](COC(=O)Cc2cccc(O)c2)[C@@H](O)[C@H]1O = 27.3

I = CC1(C)O[C@@H]2[C@H](O1)[C@@H](COC(=O)Cc1ccc(Br)cc1)O[C@H]2n1cnc2c(N)ncnc21
II = Cc1ccc(CC(=O)OC[C@H]2O[C@@H](n3cnc4c(N)ncnc43)[C@H](O)[C@@H]2O)cc1
Task item: # query: argmin of MIC50 over I and II Answer = label.
Reply: II
(II: 11.8 µg/mL, I: 21.2 µg/mL)

* * *

system: Escherichia coli; test: Antimicrobial activity against Escherichia coli ATCC 8739 by MTT assay; assay type: functional
property.label: MIC50 (µg/mL)

Cc1ccc(CC(=O)OC[C@H]2O[C@@H](n3cnc4c(N)ncnc43)[C@@H]3OC(C)(C)O[C@@H]32)cc1 = 27
Nc1ncnc2c1ncn2[C@@H]1O[C@H](COC(=O)c2ccccc2)[C@@H](O)[C@H]1O = 33.7

* * *

tested on: Pseudomonas aeruginosa; assay: Antimicrobial activity against Pseudomonas aeruginosa ATCC 9027 by MTT assay; assay type: functional
property.label: MIC50 (µg/mL)

Nc1ncnc2c1ncn2[C@@H]1O[C@H](COC(=O)c2ccc(Br)cc2)[C@@H](O)[C@H]1O = 22.7
CC1(C)O[C@@H]2[C@H](O1)[C@@H](COC(=O)Cc1cccc(O)c1)O[C@H]2n1cnc2c(N)ncnc21 = 25.9
Nc1ncnc2c1ncn2[C@@H]1O[C@H](COC(=O)Cc2cccc(Br)c2)[C@@H](O)[C@H]1O = 27.4
COc1ccc(CC(=O)OC[C@H]2O[C@@H](n3cnc4c(N)ncnc43)[C@@H]3OC(C)(C)O[C@@H]32)cc1OC = 30.1

* * *

experiment: Inhibition of Staphylococcus aureus tyrosyl-tRNA synthetase expressed in Escherichia coli assessed as reduction in tRNA aminoacylation pre-incubated for 10 mins before addition of Escherichia coli MRE600 tRNA and L-tyrosine
property.label: IC50 (µM)

Worked examples follow.
CC1(C)O[C@@H]2[C@H](O1)[C@@H](COC(=O)Cc1ccc(Cl)cc1)O[C@H]2n1cnc2c(N)ncnc21 = 8.4
CC1(C)O[C@@H]2[C@H](O1)[C@@H](COC(=O)Cc1ccc(O)cc1)O[C@H]2n1cnc2c(N)ncnc21 = 19
CC1(C)O[C@@H]2[C@H](O1)[C@@H](COC(=O)Cc1cccc(Cl)c1)O[C@H]2n1cnc2c(N)ncnc21 = 6.3
Nc1ncnc2c1ncn2[C@@H]1O[C@H](COC(=O)Cc2ccc(Br)cc2)[C@@H](O)[C@H]1O = 5.2
CC1(C)O[C@@H]2[C@H](O1)[C@@H](COC(=O)Cc1cccc(F)c1)O[C@H]2n1cnc2c(N)ncnc21 = 1.1
Nc1ncnc2c1ncn2[C@@H]1O[C@H](COC(=O)Cc2cccc(F)c2)[C@@H](O)[C@H]1O = 0.8
Nc1ncnc2c1ncn2[C@@H]1O[C@H](COC(=O)Cc2cccc(O)c2)[C@@H](O)[C@H]1O = 9.3
Nc1ncnc2c1ncn2[C@@H]1O[C@H](COC(=O)Cc2ccc(O)cc2)[C@@H](O)[C@H]1O = 23
Nc1ncnc2c1ncn2[C@@H]1O[C@H](COC(=O)Cc2ccccc2Cl)[C@@H](O)[C@H]1O = 47
Nc1ncnc2c1ncn2[C@@H]1O[C@H](COC(=O)c2ccc(F)cc2)[C@@H](O)[C@H]1O = 51

1 = CCCC(=O)OC[C@H]1O[C@@H](n2cnc3c(N)ncnc32)[C@H](O)[C@@H]1O
2 = CC1(C)O[C@@H]2[C@H](O1)[C@@H](COC(=O)Cc1ccccc1F)O[C@H]2n1cnc2c(N)ncnc21
Task item: When the recorded IC50 values are compared, which is smaller: that of 1 or that of 2 ? Could you answer with the label of the item you picked?
Reply: 2

* * *

test system: Escherichia coli; test: Antimicrobial activity against Escherichia coli ATCC 8739 by MTT assay; type: functional
property.label: MIC50 (µg/mL)

Known results for compounds:
CC1(C)O[C@@H]2[C@H](O1)[C@@H](COC(=O)Cc1cccc(Cl)c1)O[C@H]2n1cnc2c(N)ncnc21 = 27.8
Nc1ncnc2c1ncn2[C@@H]1O[C@H](COC(=O)Cc2ccc(Cl)c(Cl)c2)[C@@H](O)[C@H]1O = 19.4
Nc1ncnc2c1ncn2[C@@H]1O[C@H](COC(=O)Cc2ccccc2O)[C@@H](O)[C@H]1O = 15.9

a = Cc1ccc(CC(=O)OC[C@H]2O[C@@H](n3cnc4c(N)ncnc43)[C@H](O)[C@@H]2O)cc1
b = Nc1ncnc2c1ncn2[C@@H]1O[C@H](COC(=O)c2ccc(Cl)cc2)[C@@H](O)[C@H]1O
Task item: // compare measured MIC50, left a , right b , return larger Please respond with the label that marks your chosen entry.
Reply: b

* * *

test: Inhibition of Staphylococcus aureus tyrosyl-tRNA synthetase expressed in Escherichia coli assessed as reduction in tRNA aminoacylation pre-incubated for 10 mins before addition of Escherichia coli MRE600 tRNA and L-tyrosine
property.label: IC50

Example molecules with recorded IC50:
Nc1ncnc2c1ncn2[C@@H]1O[C@H](COC(=O)Cc2ccc(F)cc2)[C@@H](O)[C@H]1O = 7.7 µM
CCCCCCCCCC(=O)OC[C@H]1O[C@@H](n2cnc3c(N)ncnc32)[C@H](O)[C@@H]1O = > 100 µM

Next molecule, IC50 to be filled in.
Task item: Please report the recorded IC50 for COc1ccc(CC(=O)OC[C@H]2O[C@@H](n3cnc4c(N)ncnc43)[C@H](O)[C@@H]2O)cc1OC .
Reply: > 100 µM

* * *

test system: Pseudomonas aeruginosa; assay: Antimicrobial activity against Pseudomonas aeruginosa ATCC 9027 by MTT assay; format: functional
property.label: MIC50 (µg/mL)

CC1(C)O[C@@H]2[C@H](O1)[C@@H](COC(=O)Cc1cccc(Cl)c1)O[C@H]2n1cnc2c(N)ncnc21 = 22

A = COc1ccc(CC(=O)OC[C@H]2O[C@@H](n3cnc4c(N)ncnc43)[C@H](O)[C@@H]2O)cc1OC
B = Nc1ncnc2c1ncn2[C@@H]1O[C@H](COC(=O)Cc2ccc(Br)cc2)[C@@H](O)[C@H]1O
Task item: Compare A and B and name the one whose reported MIC50 is smaller. Pick one; state its label.
Reply: A
(A: 10.2 µg/mL, B: 19.3 µg/mL)

* * *

Catalogue of MIC50 readings, one per entry.
system: Escherichia coli; test: Antimicrobial activity against Escherichia coli ATCC 8739 by MTT assay; format: functional

CCCCCCCC(=O)OC[C@H]1O[C@@H](n2cnc3c(N)ncnc32)[C@H](O)[C@@H]1O = > 100 mg/L
CCCC(=O)OC[C@H]1O[C@@H](n2cnc3c(N)ncnc32)[C@H](O)[C@@H]1O = > 100 mg/L

Task item: Can you look up the measured MIC50 of CCCCCCCCCC(=O)OC[C@H]1O[C@@H](n2cnc3c(N)ncnc32)[C@H](O)[C@@H]1O for me?
Reply: > 100 mg/L
